Cited source: ChEMBL document CHEMBL1201862

Record form. Attribute: AC50. Fill in for each entry.
- protocol.notes: blockers of HIV-1 envelope-mediated cell-cell fusion – cherry-pick, dose response (AID 652057)
- Assay type: functional, cell-based
The source made the active and inactive calls.

Task: What does the data say about its AC50? Entry: "COc1ccc2[nH]c3c(N4CCC(O)(c5cccc(C(F)(F)F)c5)CC4)ncnc3c2c1"
Output: 9.77 µM (active)

Task: May I ask what AC50 has been recorded for "O=C(Nc1nc2ccccc2[nH]1)c1ccccc1F" ?
Output: 3.82 µM (active)

Task: Dear colleague, I am looking for the recorded AC50 of the following compound: "C[C@H]1CN([C@@H](C)CO)C(=O)Cc2cc(NC(=O)Cc3cn(C)c4ccccc34)ccc2O[C@H]1CN(C)S(=O)(=O)c1ccccc1"
Output: 12.7 µM (active)

Task: Find the recorded AC50 belonging to "CCc1nc2ccc(C(=O)NCCN3CCNC3=O)cn2c1N(CC)Cc1cccc(Br)c1" and report it.
Output: 1.18 µM (active)

* * *

I'd appreciate it if you could supply IC50 values for the items below.
- target: Prothrombin (Homo sapiens, UniProt P00734)
- protocol.notes: Thrombin 1536 HTS Dose Response Confirmation. [Related pubchem assays: 1046 (Thrombin 1536 HTS; hits were confirmed in this assay)]
- Type: functional
The source made the active and inactive calls.

Task: Sample "O=C(NCc1ccccn1)c1cn(-c2ccccc2)nc1-c1ccc(Cl)cc1" — what was its IC50?
Output: > 50 µM (not active)

Task: Look up IC50: "CC(CO)(CO)NCc1ccc(-c2ccccc2)cc1"
Output: > 50 µM (not active)

Task: Which IC50 value belongs to CN1C(=O)/C(=C2\SC(=S)N(C(CCC(=O)O)C(=O)O)C2=O)c2ccccc21 (stereo not given) ?
Output: > 50 µM (not active)

Task: Suppose we examine the compound "COc1cccc(C(=O)n2c(SC)nc3cc4c(cc32)OCCO4)c1" ; what IC50 value has been reported?
Output: 0.0235 µM (active)

Task: I'd like to know its IC50. The compound in question is "O=C(NCc1ccco1)c1cnc2ccc(S(=O)(=O)N3CCOCC3)cc2c1O"
Output: 0.943 µM (active)

* * *

Field: AC50. Provide a value for each of the molecules that follow.
- target: DNA repair and recombination protein RAD54-like (Homo sapiens)
- Sequence (Q92698 whole entry): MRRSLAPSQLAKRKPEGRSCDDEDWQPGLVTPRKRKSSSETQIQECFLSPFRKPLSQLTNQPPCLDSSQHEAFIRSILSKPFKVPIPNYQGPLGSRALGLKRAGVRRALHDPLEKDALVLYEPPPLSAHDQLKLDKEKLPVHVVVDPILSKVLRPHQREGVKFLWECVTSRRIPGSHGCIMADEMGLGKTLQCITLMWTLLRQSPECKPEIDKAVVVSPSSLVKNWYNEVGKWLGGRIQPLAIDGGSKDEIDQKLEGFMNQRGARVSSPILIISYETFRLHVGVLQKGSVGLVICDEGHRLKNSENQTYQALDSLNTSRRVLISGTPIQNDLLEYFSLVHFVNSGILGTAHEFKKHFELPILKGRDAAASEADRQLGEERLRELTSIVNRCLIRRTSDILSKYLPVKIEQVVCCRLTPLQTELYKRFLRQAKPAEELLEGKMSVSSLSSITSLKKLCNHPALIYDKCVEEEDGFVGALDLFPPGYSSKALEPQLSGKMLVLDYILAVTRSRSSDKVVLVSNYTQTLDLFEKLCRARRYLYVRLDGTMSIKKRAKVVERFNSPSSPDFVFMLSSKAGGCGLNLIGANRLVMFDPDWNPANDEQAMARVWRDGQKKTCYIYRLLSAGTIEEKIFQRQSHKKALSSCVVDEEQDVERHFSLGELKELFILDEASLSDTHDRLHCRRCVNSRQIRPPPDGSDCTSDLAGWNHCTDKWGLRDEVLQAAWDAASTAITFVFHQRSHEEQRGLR
- protocol.notes: RAD54 Holliday junction migration blockers – biochemical, fluorescence, cherry-picked samples, dose series, confirmation (AID 651657)
- Format: functional
The source made the active and inactive calls.

Task: Need AC50 of Cc1cc(C)cc(OCC(O)CN2CCC(CN3C(=O)c4cccc5cccc(c45)C3=O)CC2)c1 (stereo not given) , thanks.
Output: 7.63 µM (active)

Task: Requested read-out: AC50. Entry: "c1cc2c3c(cccc3c1)C(N1CCCCC1)=N2"
Output: 34 µM (active)

Task: Could you tell me which AC50 is on file for "Cc1cccc(-c2cc(N3CCCN(C)CC3)n3nccc3n2)c1" ?
Output: 24 µM (active)

Task: Sample "Oc1ccc(CCNc2c3ccccc3nc3ccccc23)cc1O" — what was its AC50?
Output: 1.87 µM (active)

Task: Reported AC50, molecule "CN(C)CCCNc1nc2cc(-c3cccc(Cl)c3)sc2c(=O)n1C" : ____
Output: 32.9 µM (active)
